Every entry's value here was drawn from the METLIN SMRT retention time set (Domingo-Almenara et al. 2019).

assay: gradient 5% acetonitrile 3 min, to 50% in 2 min, to 85% in 15 min, held 3 min, 100 µL/min; settings: column: Zorbax Extend-C18 2.1 x 50 mm; eluents: water / acetonitrile, 0.1% formic acid
Please go through the items and note down their RP-LC retention time.
Kindly answer with a numeric value in s, unit omitted.

I am curious: what RP-LC retention time value has been reported for COCCN(Cc1ccc(C(C)C)cc1)Cc1cc(=O)n2cc(C)ccc2n1 ?
719

I am curious: what RP-LC retention time value has been reported for O=C(O)c1cn(Cc2ccccn2)nc1S(=O)(=O)N1CCc2ccccc2C1 ?
690

I am curious: what RP-LC retention time value has been reported for O=c1ccc(-n2cccn2)nn1CCNS(=O)(=O)c1ccc(Cl)s1 ?
708

I am curious: what RP-LC retention time value has been reported for Cc1cc(C(F)(F)F)nn1CC(=O)N1CCc2nn(CC3CC3)c(=O)n2CC1 ?
712

###

Please go through the items and note down their RP-LC retention time.
test: gradient 5% acetonitrile 3 min, to 50% in 2 min, to 85% in 15 min, held 3 min, 100 µL/min; details: column: Zorbax Extend-C18 2.1 x 50 mm; eluents: water / acetonitrile, 0.1% formic acid
Kindly answer with a numeric value in s, unit omitted.

I am curious: what RP-LC retention time value has been reported for Cc1nc2ccc3nc(NC(=O)COc4ccccc4F)sc3c2s1 ?
877

I am curious: what RP-LC retention time value has been reported for O=C(Nc1ccc(OCc2nnc(-c3ccccc3)o2)cc1)c1ccnc(Cl)c1 ?
908

I am curious: what RP-LC retention time value has been reported for COc1ccc(CNC(=O)N2CC(Oc3ccc(-c4nc(C)no4)cc3)C2)cc1 ?
825

I am curious: what RP-LC retention time value has been reported for Nc1cc(S(=O)(=O)N2CCCCCC2)ccc1Cl ?
902

I am curious: what RP-LC retention time value has been reported for N#Cc1ccc(CN2CCCC2=O)cc1 ?
658

I am curious: what RP-LC retention time value has been reported for O=C1C2N=NN(c3ccc(F)cc3)C2C(=O)N1c1ccccc1 (configuration not stated) ?
914

I am curious: what RP-LC retention time value has been reported for Cc1ccc(N2CC(c3noc(-c4cccc(OC(F)(F)F)c4)n3)CC2=O)cc1 (configuration not stated) ?
1160

I am curious: what RP-LC retention time value has been reported for COc1cc(NC(=O)Cn2cc(-c3nnc(C)o3)c3ccccc32)cc(OC)c1 ?
809

I am curious: what RP-LC retention time value has been reported for O=C(Nc1ncc([N+](=O)[O-])s1)c1ccc([N+](=O)[O-])c(Cl)c1 ?
946

I am curious: what RP-LC retention time value has been reported for Cc1nn2c(CNC(=O)c3ccc(C(F)(F)F)cc3)c(C)nc2s1 ?
692

I am curious: what RP-LC retention time value has been reported for Cc1ccc(CNC(=O)C2(C)CN(S(C)(=O)=O)CC(=O)N2Cc2ccccc2Cl)cc1 (configuration not stated) ?
901

I am curious: what RP-LC retention time value has been reported for CCOC(=O)c1ccc2c(=O)c(C(=O)OCC)c[nH]c2c1 ?
661

I am curious: what RP-LC retention time value has been reported for CC(C)Cn1c(CCNC(=O)c2cccc(F)c2)nc2cccnc21 ?
709

I am curious: what RP-LC retention time value has been reported for O=C(Cn1c(=O)c2nncn2c2ncccc21)NCc1ccccc1Cl ?
662

I am curious: what RP-LC retention time value has been reported for COc1ccc(NC(=O)CN2C(=O)NC3(CCCCC3)C2=O)cc1Cl ?
778

I am curious: what RP-LC retention time value has been reported for COc1ccc(CNC(=O)Nc2cc3c(cc2N2CCCC2)n(C)c(=O)n3C)cc1 ?
750

I am curious: what RP-LC retention time value has been reported for C=CCN1C(=O)COc2ccc(-c3csc(NC(=O)c4ccc(F)cc4)n3)cc21 ?
1010

I am curious: what RP-LC retention time value has been reported for O=C(NCc1ccccn1)c1c(-c2ccccc2)nnc2ccccc12 ?
609

I am curious: what RP-LC retention time value has been reported for O=C(c1cnn2c(-c3ccc4c(c3)OCO4)ccnc12)N1CCN(c2ccccc2)CC1 ?
864

I am curious: what RP-LC retention time value has been reported for COc1cc(C(=O)Nc2nnc(SCc3nnc(-c4ccccc4)o3)s2)cc(OC)c1OC ?
871

I am curious: what RP-LC retention time value has been reported for CC(C)OC(=O)Cn1nc2ccc(S(=O)(=O)N3CCSCC3)cn2c1=O ?
829

I am curious: what RP-LC retention time value has been reported for CCN1CCn2cc(S(=O)(=O)Nc3ccc(C)cc3F)cc2C1=O ?
725

###

experiment: gradient 5% acetonitrile 3 min, to 50% in 2 min, to 85% in 15 min, held 3 min, 100 µL/min; settings: column: Zorbax Extend-C18 2.1 x 50 mm; eluents: water / acetonitrile, 0.1% formic acid
Please go through the items and note down their RP-LC retention time.
Kindly answer with a numeric value in s, unit omitted.

I am curious: what RP-LC retention time value has been reported for O=C(c1ccc(-c2cccs2)nc1)N1CCN(c2ccc(F)cc2)CC1 ?
950

I am curious: what RP-LC retention time value has been reported for CCCCc1nn2c(=O)cc(CN3CCN(c4ncccn4)CC3)nc2s1 ?
604

I am curious: what RP-LC retention time value has been reported for COc1cccc(CNC(=O)C2(C)CCN(C(=O)Nc3cc(OC)c(OC)c(OC)c3)CC2)c1 ?
732

I am curious: what RP-LC retention time value has been reported for O=C(Nc1cccc(OCc2nnc(-c3ccc(Cl)cc3)o2)c1)c1cnccn1 ?
946

I am curious: what RP-LC retention time value has been reported for O=C(c1cn(-c2cc(N3CCCCC3)ncn2)cn1)N1CCN(C(=O)c2ccco2)CC1 ?
675

I am curious: what RP-LC retention time value has been reported for CCOCCCNC(=O)CN1C(=O)C2CCCCN2c2ccc(C(=O)N3CCCC3)cc21 (centres undefined) ?
694

I am curious: what RP-LC retention time value has been reported for O=C(CN1CCCCC1c1nc(-c2ccc(F)cc2)no1)NCc1ccc(F)cc1 (centres undefined) ?
1080

I am curious: what RP-LC retention time value has been reported for O=S(=O)(c1ccc2nc(N3CCN(c4ccccc4F)CC3)ccc2c1)N1CCCCC1 ?
1160

I am curious: what RP-LC retention time value has been reported for COc1ccc(C2Cn3nnc(C(=O)NCc4cc(OC)ccc4OC)c3CO2)cc1 (centres undefined) ?
926

I am curious: what RP-LC retention time value has been reported for Cc1cc(C)n(Cc2ccc(C(=O)N3CCN(c4ccc(=O)n(-c5ccccc5)n4)CC3)o2)n1 ?
706

I am curious: what RP-LC retention time value has been reported for Cc1ccc(C)c(-c2coc(-c3ccc(NC(=O)NCc4ccco4)cc3)n2)c1 ?
1110

I am curious: what RP-LC retention time value has been reported for O=C(Cn1cnc2c(sc3nc(-c4ccccc4)ccc32)c1=O)Nc1ccc(Br)cc1 ?
1120

I am curious: what RP-LC retention time value has been reported for COc1ccc(OC)c(NC(=O)C2CCCN2S(=O)(=O)c2cc3c(cc2C)NC(=O)C(C)O3)c1 (centres undefined) ?
830

I am curious: what RP-LC retention time value has been reported for CC(C)NC(=O)c1ccc(OCC2CCCN(C(=O)C3(c4ccccc4)CC3)C2)cc1 (centres undefined) ?
940

I am curious: what RP-LC retention time value has been reported for O=C(C1CCN(c2nnc(-c3ccccc3)o2)CC1)N1CCN(C2CCCCC2)CC1 ?
628

I am curious: what RP-LC retention time value has been reported for CC(C)Cc1ccc(S(=O)(=O)N2CCC3(CC2)CCC(O)(CN2CCCC2)CC3)cc1 ?
786

I am curious: what RP-LC retention time value has been reported for CCc1ccc(CNC(=O)Cn2cnc3nc4c(cc3c2=O)CC(C)CC4)cc1 (centres undefined) ?
855

I am curious: what RP-LC retention time value has been reported for CCS(=O)(=O)N1CC(F)(F)C[C@H]1c1nc(-c2cccnc2)no1 ?
743

I am curious: what RP-LC retention time value has been reported for Cc1nc(-c2noc(-c3ccc(F)cc3)n2)cn1CC(=O)NCc1cccs1 ?
814

###

Please go through the items and note down their RP-LC retention time.
assay: gradient 5% acetonitrile 3 min, to 50% in 2 min, to 85% in 15 min, held 3 min, 100 µL/min; conditions: column: Zorbax Extend-C18 2.1 x 50 mm; eluents: water / acetonitrile, 0.1% formic acid
Kindly answer with a numeric value in s, unit omitted.

I am curious: what RP-LC retention time value has been reported for COc1ccc(-c2cc3c(=O)n(Cc4ccccc4)ccn3n2)cc1OC ?
906

I am curious: what RP-LC retention time value has been reported for CNC(=O)C1CCCN(C(=O)Nc2ccc(NC(=O)Nc3ccc(C)cc3)cc2)C1 (centres undefined) ?
883

I am curious: what RP-LC retention time value has been reported for NC(=O)C1CCN(C(=O)CSc2nnnn2-c2ccccc2)CC1 ?
621

I am curious: what RP-LC retention time value has been reported for CCCCS(=O)(=O)N1C[C@@H](COC)[C@H](C(=O)NC)C1 ?
626

I am curious: what RP-LC retention time value has been reported for CCOc1ccc(-n2nnc(-c3nc(C)c(C(=O)N4CCC(C(N)=O)CC4)s3)c2C)cc1 ?
719

I am curious: what RP-LC retention time value has been reported for CC1CCN(S(=O)(=O)N2CCCC(C(=O)NCc3ccc(Cl)cc3)C2)CC1 (centres undefined) ?
1050

I am curious: what RP-LC retention time value has been reported for COC(=O)c1ccccc1NC(=O)c1cc(N2C(=O)CCS2(=O)=O)ccc1Cl ?
840

I am curious: what RP-LC retention time value has been reported for Cc1ccc(CNC(=O)C2(C)CN(S(C)(=O)=O)CC(=O)N2c2ccc(C)c(Cl)c2)cc1 (centres undefined) ?
874

I am curious: what RP-LC retention time value has been reported for CSc1ccc(Cl)c(-c2nc(-c3cccc(-c4ccnn4C)c3)no2)c1 ?
1300

I am curious: what RP-LC retention time value has been reported for COc1ccc(CNC(=O)c2cn(C)nc2S(=O)(=O)N2CCC(C)CC2)cc1 ?
904

I am curious: what RP-LC retention time value has been reported for CCOC(=O)c1nc(NCCCN2CCN(c3ccc(F)cc3)CC2)c2ccccc2n1 ?
647

I am curious: what RP-LC retention time value has been reported for Cc1cc(C)n(CCN(C(=O)c2ccc([N+](=O)[O-])s2)c2nc3ccccc3s2)n1 ?
1020

I am curious: what RP-LC retention time value has been reported for COc1ccc(-c2nnc(-c3cccc(S(=O)(=O)N4CCCCC4)c3)o2)cc1OC ?
991

I am curious: what RP-LC retention time value has been reported for Cc1ccc(-c2[nH]ncc2CN2CCn3c(nn(C)c3=O)C2)cc1C ?
638

I am curious: what RP-LC retention time value has been reported for COc1cccc(NC(=O)Cn2nc3c(Oc4cccc(Cl)c4)nccn3c2=O)c1 ?
858

I am curious: what RP-LC retention time value has been reported for Cc1ccc(-c2nnc(-c3nn(C)c4c3CN(S(=O)(=O)c3ccc(Cl)s3)CC4)o2)cc1 ?
1060

I am curious: what RP-LC retention time value has been reported for Cc1cc2nn(CC(=O)N3CCC(C)CC3)c(=O)n2c(Nc2ccc(F)cc2)n1 ?
990

I am curious: what RP-LC retention time value has been reported for O=C(O)CCC1CCN(c2cc(NC3CC3)ncn2)CC1 ?
587

I am curious: what RP-LC retention time value has been reported for Cc1cc(F)ccc1NC(=O)c1c(O)c2cccnc2n(-c2cccc(F)c2)c1=O ?
1250

I am curious: what RP-LC retention time value has been reported for Fc1cccc(Cn2cc(-c3noc(-c4ccccc4)n3)nn2)c1 ?
986

I am curious: what RP-LC retention time value has been reported for Cc1ccc(CNC(=O)c2ccc(NC(=O)C3CCC3)cc2N2CCOCC2)o1 ?
818

I am curious: what RP-LC retention time value has been reported for c1ccc(-c2ccc(-c3nccc4ccccc34)[nH]2)cc1 ?
806

I am curious: what RP-LC retention time value has been reported for COc1ccc2c(c1)C1(CCN(C(=O)c3ccccc3F)C1)C(=O)N2 (centres undefined) ?
703

I am curious: what RP-LC retention time value has been reported for Cn1c(C#N)ccc1-c1ccc2c(c1)C(C)(C)OC(=S)N2 ?
989
